Attribution: paper PMC6335422

Target: T1, Erh1 H9A (S. pombe, UniProt G2TRN4 1-104, H9A)
T1 construct: Erh1, S. pombe, residues 1-104, point mutant made with the MutanBEST kit; source: E. coli BL21 (Gold), purified (Ni-chelating resin, size-exclusion chromatography)
T1 sequence (looked up): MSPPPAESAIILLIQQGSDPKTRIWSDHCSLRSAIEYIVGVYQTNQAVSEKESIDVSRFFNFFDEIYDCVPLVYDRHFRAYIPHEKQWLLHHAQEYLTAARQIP
Test: ITC; SUMO-tagged Mmi1 peptides titrated into Erh1 in the sample cell; MicroCal iTC200, 293 K; 20 mM Tris-HCl pH 7.5, 150 mM NaCl; single-site binding model
Settings: both partners purified
Quantity kind: pKd
pKd field: float, defined as -log10 of concentration (mol/L).

Look at this binder and give its reported pKd. GKYDFSRHCTDYGHSYEWPYFRSLRRES (domain or fragment, S. pombe, UniProt O74958 95-122, looked up, SUMO stands after the His6 tag at the N-terminus; also called Mmi1wt; source: E. coli BL21 (Gold), purified (Ni-chelating resin, size-exclusion chromatography); not shown: SUMO, N-terminal, kept) [SUMO-tagged Mmi1 95-122] 5.82
